- TARGET_SYSTEM: EGFP-hCXCR4 (human, UniProt P61073 1-352)
- Sequence (P61073 whole entry): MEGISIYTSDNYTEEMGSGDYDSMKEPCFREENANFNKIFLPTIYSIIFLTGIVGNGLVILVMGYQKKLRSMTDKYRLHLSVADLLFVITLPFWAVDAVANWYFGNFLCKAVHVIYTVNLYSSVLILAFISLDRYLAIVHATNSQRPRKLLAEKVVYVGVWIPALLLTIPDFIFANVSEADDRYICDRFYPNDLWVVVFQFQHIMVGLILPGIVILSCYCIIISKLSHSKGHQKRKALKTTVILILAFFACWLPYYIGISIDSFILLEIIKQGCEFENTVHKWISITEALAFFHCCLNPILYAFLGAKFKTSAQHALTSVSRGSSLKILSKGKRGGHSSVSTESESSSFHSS
- ASSAY_TEXT: competition with CXCL12-Tr on CXCR4 expressing HEK293 cells, FRET
MEASURED_ATTRIBUTE: Kd

Ask: Need Kd of LVRYTK (Synthetic fragment of human serum albumin) [ALB408-413] , thanks.
Reply: > 200 µM

Measured values drawn from patent US20130029902A1 for this set.
